- measurement.target: T1, SARS-CoV-2 Spike Glycoprotein S1 (SARS-CoV-2, UniProt P0DTC2 16-685)
- T1 construct: also called S1 Monomer
- experiment: ELISA, plate coated with S1
// reported S1 Monomer per item
Write the answer as a number in nM, unit excluded.

Please review the following examples before continuing.
1. 2-5 (antibody, V domains shown) VH: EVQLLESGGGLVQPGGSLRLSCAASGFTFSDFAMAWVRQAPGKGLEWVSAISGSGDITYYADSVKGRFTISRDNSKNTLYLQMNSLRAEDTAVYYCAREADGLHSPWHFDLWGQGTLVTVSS VL: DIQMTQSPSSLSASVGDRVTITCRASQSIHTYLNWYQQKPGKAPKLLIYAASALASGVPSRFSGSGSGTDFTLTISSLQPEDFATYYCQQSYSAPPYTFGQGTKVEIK
0.17
2. 2-2 (antibody, V domains shown) VH: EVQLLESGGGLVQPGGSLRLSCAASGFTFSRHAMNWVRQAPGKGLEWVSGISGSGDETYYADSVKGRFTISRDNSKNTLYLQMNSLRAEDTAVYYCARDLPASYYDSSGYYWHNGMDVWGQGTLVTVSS VL: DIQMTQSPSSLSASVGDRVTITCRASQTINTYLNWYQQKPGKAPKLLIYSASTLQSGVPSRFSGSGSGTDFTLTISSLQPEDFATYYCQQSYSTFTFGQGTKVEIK
0.13
3. 2-4 (antibody, V domains shown) VH: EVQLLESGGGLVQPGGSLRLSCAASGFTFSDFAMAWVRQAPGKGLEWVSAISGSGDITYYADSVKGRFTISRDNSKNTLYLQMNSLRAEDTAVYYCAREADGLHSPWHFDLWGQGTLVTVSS VL: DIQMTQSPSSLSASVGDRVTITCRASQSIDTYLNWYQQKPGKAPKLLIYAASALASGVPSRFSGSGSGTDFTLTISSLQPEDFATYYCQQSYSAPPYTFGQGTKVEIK
1.58

Here is the next item to consider.
Which S1 Monomer value is on record for 2-8 (antibody, V domains shown) VH: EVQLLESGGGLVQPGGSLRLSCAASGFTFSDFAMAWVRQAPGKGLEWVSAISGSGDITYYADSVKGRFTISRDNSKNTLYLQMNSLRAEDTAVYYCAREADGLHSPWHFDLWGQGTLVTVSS VL: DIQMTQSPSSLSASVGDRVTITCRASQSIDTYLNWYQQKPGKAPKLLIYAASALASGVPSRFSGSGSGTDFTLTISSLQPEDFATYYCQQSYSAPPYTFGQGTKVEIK ?
1.52

meta.source: patent US20210355194A1
